# Tested on: Th2 cells
# assayNotes: DK-PGD2-Induced IL-13 Production Assay in Th2 Cells
# Type: cell-based
# studyConditions: inhibition of IL-13 production; human Th2 cells; 500 nM DK-PGD2; 4 hrs at 37° C.; ELISA
endpoint: IC50 (nM)

Consider the reported IC50 for these compounds:
- compound: "Cc1c(CC(=O)O)cc2ccc(F)cc2c1C1CCN(C(=O)c2cc(F)ccc2F)CC1 [Example 30]"
  unit: "nM"
  IC50: 83
- compound: "Cc1c(CC(=O)O)cc2ccc(F)cc2c1C1CCN(S(=O)(=O)c2c(Cl)cccc2Cl)CC1 [Example 18]"
  unit: "nM"
  IC50: 58
- compound: "Cc1c(CC(=O)O)cc2ccc(F)cc2c1C1CCN(S(=O)(=O)c2cccc(C(F)(F)F)c2)CC1 [Example 23]"
  unit: "nM"
  IC50: 266
- compound: "Cc1c(CC(=O)O)cc2ccc(F)cc2c1C1CCN(S(=O)(=O)Cc2ccc(Cl)cc2)CC1 [Example 22]"
  unit: "nM"
  IC50: 23
- compound: "Cc1c(CC(=O)O)cc2ccc(F)cc2c1C1CCN(C(=O)Nc2ccc(Cl)cc2Cl)CC1 [Example 33]"
  unit: "nM"
  IC50: 30
- compound: "Cc1c(CC(=O)O)cc2ccc(F)cc2c1C1CCN(S(=O)(=O)Cc2ccccc2)CC1 [Example 19]"
  unit: "nM"
  IC50: 8

I. COc1ccccc1S(=O)(=O)N1CCC(c2c(C)c(CC(=O)O)cc3ccc(F)cc23)CC1 [Example 20]
II. Cc1c(CC(=O)O)cc2ccc(F)cc2c1C1CCN(S(=O)(=O)Cc2ccccc2N)CC1 [Example 27]
// which entry has the larger IC50 value, I or II ? Reply briefly: the label of your chosen item. II
